src = paper PMC8405091

system: SiHa cells; test: MTT antiproliferative assay, SiHa; format: cell-based, human; conditions: Homo sapiens, 72 h, read-out: Growth inhibition, % ± SEM, 10 μM
Documented inhibition at 10 µM across a set of compounds

>  <COMPOUND>
C[C@@]12CC[C@@H]3c4ccc(OCc5ccccc5)cc4CC[C@H]3[C@@H]1C[C@H](CP(=O)(c1ccccc1)c1ccccc1)C2=O

>  <inhibition at 10 µM>
< 20%

$$$$
>  <COMPOUND>
Cc1ccc(P(=O)(C[C@H]2C[C@H]3[C@@H]4CCc5cc(OCc6ccccc6)ccc5[C@H]4CC[C@@]3(C)C2=O)c2ccc(C)cc2)cc1

>  <inhibition at 10 µM>
< 20%

$$$$
>  <COMPOUND>
CC12CCC3c4ccc(OCc5ccccc5)cc4CCC3C1CC(CP(=O)(c1ccc3ccccc3c1)c1ccc3ccccc3c1)C2=O (stereo not shown)

>  <inhibition at 10 µM>
23.2%

$$$$
>  <COMPOUND>
C[C@@]12CC[C@@H]3c4ccc(OCc5ccccc5)cc4CC[C@H]3[C@@H]1C[C@@H](CP(=O)(c1ccccc1)c1ccccc1)C2=O

>  <inhibition at 10 µM>
< 20%

$$$$
